- Test system: Klebsiella pneumoniae KPN+19-15
- Format: cell-based
- measurement.context: KPN+19-15
Bridge positions count the residues as written; N and C are the ends. Square brackets hold non-standard residues; d marks the D form. Peptide text beside a SMILES is read from it. * marks the point of attachment. Heptanoyl = CCCCCCC(=O)*; Dab = NCC[C@H](N)C(=O)O; Dap = NC[C@H](N)C(=O)O
metric: MIC (µg/mL)
The answer is to be given in µg/mL; state only the numeric part.

Asked: So what MIC did CCCCCCC(=O)N[C@@H](CCN)C(=O)N[C@H](C(=O)N[C@@H](CN)C(=O)N[C@H]1CCNC(=O)[C@H]([C@@H](C)O)NC(=O)[C@H](CCN)NC(=O)[C@H](CCN)NC(=O)[C@H]([C@@H](C)O)NC(=O)[C@@H](Cc2ccccc2)NC(=O)[C@H](CCN)NC1=O)[C@@H](C)O [Compound 9] (Heptanoyl-[Dab]T[Dap][Dab][Dab][dF]T[Dab][Dab]T; lactam 4-C) get with Klebsiella pneumoniae KPN+19-15?
Given back: 0.03

Asked: And then CCCCCCC(=O)N[C@@H](CCN)C(=O)N[C@H](C(=O)N[C@H](CO)C(=O)N[C@H]1CCNC(=O)[C@H]([C@@H](C)O)NC(=O)[C@H](CCN)NC(=O)[C@H](CN)NC(=O)[C@H]([C@@H](C)O)NC(=O)[C@@H](Cc2ccccc2)NC(=O)[C@H](CCN)NC1=O)[C@@H](C)O [Compound 74] (Heptanoyl-[Dab]T[dS][Dab][Dab][dF]T[Dap][Dab]T; lactam 4-C) , what is it?
Given back: 0.5
